B1: Caulobacter ParB omega fusion; a variant is named by its letters at X, in order, B8GW30 (parent)
chain: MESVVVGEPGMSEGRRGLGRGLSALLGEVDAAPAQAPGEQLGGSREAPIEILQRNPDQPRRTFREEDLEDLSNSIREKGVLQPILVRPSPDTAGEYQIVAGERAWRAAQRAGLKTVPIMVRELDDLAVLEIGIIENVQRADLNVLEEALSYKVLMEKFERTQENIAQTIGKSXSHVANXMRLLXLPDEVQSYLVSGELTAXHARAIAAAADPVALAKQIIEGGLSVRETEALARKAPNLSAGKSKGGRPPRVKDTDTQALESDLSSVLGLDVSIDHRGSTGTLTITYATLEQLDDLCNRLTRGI

Variants of: B1
Test: one-hybrid fitness for binding parS DNA (scaled: cognate 1, non-cognate 0); higher = stronger binding
Conditions: with parS DNA site
Over roughly 81,000 sequences, “one-hybrid fitness for binding parS DNA” has its median near -0.17; the highest 2% begin near 0.51. The full list was thinned out, with the highest values kept by preference.

{"columns": ["Sequence Variant", "one-hybrid fitness for binding parS DNA"],
 "data": [
  ["YMAC", "≤ 0.2"],
  ["RLGN", 0.469],
  ["PSDC", "≤ 0.2"],
  ["RSGK", "≤ 0.2"],
  ["RLGG", 0.995],
  ["RPGG", "≤ 0.2"],
  ["RDGG", "≤ 0.2"],
  ["RSGG", 0.998],
  ["RLGH", 0.204],
  ["FHRK", "≤ 0.2"],
  ["RIGG", 1.02]
]}
